All values here come from patent US9173392B2.

Assay: Determination of VOC content (percentage weight loss of solvent aliquot on heating)
Assay type: physicochemical
Settings: 10 mg aliquot, furnace 35° C. raised 5° C. per minute, held isothermally at 115° C.
assayEndpoint: % Total Weight Loss = VOC Content (%)
Please state the figure in %; there is no need to write the unit.

# molecule, observedValue
rows = [
    ("COC(=O)CCCCC(=O)OC [Comparative Solvent 10, dimethyl adipate]", 100),
    ("CC(O)CO (stereo not shown)", 100),
    ("CC1COC(=O)O1 (stereo not shown) [Comparative Solvent 5, propylene carbonate]", 100),
]

Please turn your attention to the following entry.
## Task # get_value(readout='% Total Weight Loss = VOC Content', item= CC(C)CCCCCCOC(=O)C1CCCCC1C(=O)OCCCCCCC(C)C (stereo not shown) )
## Result 0.33
